Assay: NCI Yeast Anticancer Drug Screen. Data for the sgs1 mgt1 strain (AID 161);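 note: 0% = growth of cultures given vehicle only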
Conditions: S. cerevisiae sgs1 mgt1 strain, at 50.0 µM, hits give high values
The panel holds about 79,000 compounds, 15% with a hit somewhere; the sample as a whole holds those more often.

Compound: C/C(=N/OC1=CC(=O)CC(C)(C)C1)c1ccccc1
growth inhibition, %: 0.3
--
Compound: CCOc1ccc2[nH]c(C)c(CC(=O)O)c2c1
growth inhibition, %: -13.5
--
Compound: CCCCN=C(NC#N)NCCCC
growth inhibition, %: -31.2
--
Compound: CC1(C)N=C(C2CCCN2C(=O)OCc2ccccc2)OC1=O (stereo not drawn)
growth inhibition, %: -38.1
--
Compound: O=C1CC2CCCC23CC2(CCN13)OCCO2 (stereo not drawn)
growth inhibition, %: -0.3
--
Compound: C/C(N=NS(=O)(=O)c1c(C)cc(C)cc1C)=C1\C=CC=CN1O
growth inhibition, %: -8.25
--
Compound: FC(F)(F)c1cccc(C=NC23CC4CC(CC(C4)C2)C3)c1
growth inhibition, %: -2.05
--
Compound: ClC1=Cc2cccc3cccc1c23
growth inhibition, %: 0.2
--
Compound: CC(=O)OCCCC(CCCOC(C)=O)OC(C)=O
growth inhibition, %: 12.2
--
Compound: O=C1CSC(c2ccccc2Br)N1c1nncs1 (stereo not drawn)
growth inhibition, %: 1.95
--
Compound: C(CCN1CCOCC1)CN1CCOCC1
growth inhibition, %: 0.45
--
Compound: O=C(Nc1cccc(F)c1)Oc1ccc(OCc2ccccc2)cc1
growth inhibition, %: 9.9
--
Compound: CC(=O)C(OCCCl)OCCCl
growth inhibition, %: 1.6

###

Overview of recorded growth inhibition for various molecules
Test: NCI Yeast Anticancer Drug Screen. Data for the mlh1 rad18 strain (AID 175)
Settings: S. cerevisiae mlh1 rad18 strain growth inhibition; at 50.0 µM; hits give high values
About 79,000 compounds went through this panel and 15% of them were active in at least one assay; those are over-represented in the sample as a whole.

Molecule: O=S1(=O)C=C(N2CCCCC2)c2ccccc21
Unit abbreviation: %
growth inhibition: 11.8
//
Molecule: CC(=O)N(C(=O)CC(=O)N1N=C(c2ccccc2)C(N=Nc2ccccc2[N+](=O)[O-])C1=O)c1ccc(Cl)cc1 (stereo not given)
Unit abbreviation: %
growth inhibition: -19
//
Molecule: CN(C)c1nc(=O)c2ccccc2o1
Unit abbreviation: %
growth inhibition: -5.05
//
Molecule: C(=C(Sc1ccccc1)Sc1ccccc1)C(Sc1ccccc1)c1ccccc1 (stereo not given)
Unit abbreviation: %
growth inhibition: -13.6
//
Molecule: O=c1[nH]cc(S)c(=O)[nH]1
Unit abbreviation: %
growth inhibition: -0.35
//
Molecule: O=C1/C(=C/c2ccc(Cl)c(Cl)c2)CCC/C1=C\c1ccc(Cl)c(Cl)c1
Unit abbreviation: %
growth inhibition: 1.2
//
Molecule: CCC(/C=C\C(C)C1CCC2C3CC=C4CC(OS(=O)(=O)c5ccc(C)cc5)CCC4(C)C3CCC12C)C(C)C (stereo not given)
Unit abbreviation: %
growth inhibition: -32.1
//
Molecule: Cc1ccccc1N1CCOS(=O)OC(C)C1 (stereo not given)
Unit abbreviation: %
growth inhibition: 57.5
//
Molecule: O=[N+]([O-])c1cc(/C=N\NS(=O)(=O)c2ccc(Cl)cc2)c(O)c([N+](=O)[O-])c1
Unit abbreviation: %
growth inhibition: 8.6
//
Molecule: COc1ccc(C(C2=C(O)CC(C)OC2=O)C2=C(O)CC(C)OC2=O)cc1 (stereo not given)
Unit abbreviation: %
growth inhibition: -10
